Test system: Staphylococcus aureus ATCC 25923
method-summary: MIC in cation-adjusted Mueller Hinton broth (CA-MHB)
Assay type: cell-based
condition-description: ATCC25923, read-out: MIC CA-MHB
Please provide measured MIC for the entries that follow.
Express it in µM; write the number only.

Request: Give the value of MIC reported for the following: C=CC[N+]12CCC(CC1)C(NC(=O)CCCCCCCCCCCCCCC)C2 (stereo not shown)
Result: 15

Request: Give the reported MIC for this compound. C=CC[N+]12CCC(CC1)C(NC(=O)CCCCCCCCCCCCC)C2 (stereo not shown)
Result: 20

Request: Provide only the value of recorded MIC for CCCCCCCCCCCCCC(=O)NC1C[N+]2(C)CCC1CC2 (stereo not shown)
Result: 40

Request: Determine its reported MIC: CCCCCCCCCCCCCCCC(=O)NC1C[N+]2(C)CCC1CC2 (stereo not shown)
Result: 16
